IC50 reference
Target: hChoKβ FL (Homo sapiens, UniProt Q9Y259)
Construct: hChoKβ full length (FL), corresponding to aminoacids 2-395; GST (N, cleaved yes); PreScission Protease recognition site (N); made in house; host or cells: Escherichia coli BL21pLysS (DE3)
Sequence (Q9Y259 2-395): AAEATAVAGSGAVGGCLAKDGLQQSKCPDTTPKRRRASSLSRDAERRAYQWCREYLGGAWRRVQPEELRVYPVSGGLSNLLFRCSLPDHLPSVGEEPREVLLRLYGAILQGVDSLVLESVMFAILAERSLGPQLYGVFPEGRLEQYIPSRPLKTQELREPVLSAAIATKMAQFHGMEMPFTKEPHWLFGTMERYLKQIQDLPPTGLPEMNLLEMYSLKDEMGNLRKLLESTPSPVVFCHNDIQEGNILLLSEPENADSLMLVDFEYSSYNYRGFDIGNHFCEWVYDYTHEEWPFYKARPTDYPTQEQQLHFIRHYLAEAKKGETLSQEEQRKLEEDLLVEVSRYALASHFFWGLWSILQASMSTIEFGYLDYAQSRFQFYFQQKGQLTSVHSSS
Assay: Biochemical kinase inhibition assay (Kinase-Glo luminescent) on hChoKβ FL
Conditions: recombinant hChoKβ FL 30 nM, ATP 5 μM, choline 20 μM, 60 min rt; read-out: ChoKβ IC50

{"SMILES_CODE": "CC1(C)Cc2cnc(N)nc2-c2[nH]nc(C(=O)Nc3nc(CC(=O)N4CCC(N5CCCC5)CC4)cs3)c21", "UNIT_ANNOTATION": "nM", "OPERATOR": "=", "IC50": 69}
{"SMILES_CODE": "CN(C)[C@H]1CCN(C(=O)Cc2csc(NC(=O)c3n[nH]c4c3C(C)(C)Cc3cnc(N)nc3-4)n2)C1", "UNIT_ANNOTATION": "nM", "OPERATOR": "=", "IC50": 761}
{"SMILES_CODE": "CC1(C)Cc2cnc(N)nc2-c2[nH]nc(C(=O)Nc3nc(CC(=O)N4CC[C@@H](O)C4)cs3)c21", "UNIT_ANNOTATION": "nM", "OPERATOR": ">", "IC50": 10000}
{"SMILES_CODE": "CN(C)C1CCN(C(=O)c2ccc(NC(=O)c3n[nH]c4c3C(C)(C)Cc3cnc(N)nc3-4)cc2)CC1", "UNIT_ANNOTATION": "nM", "OPERATOR": "=", "IC50": 37}
{"SMILES_CODE": "CC1(C)Cc2cnc(N)nc2-c2[nH]nc(C(=O)Nc3nc(CC(=O)NC4CCCCC4)cs3)c21", "UNIT_ANNOTATION": "nM", "OPERATOR": "=", "IC50": 439}

====

Target: Δ49N-hChoKα (Homo sapiens, UniProt P35790)
Construct: cDNA fragment 362-1534, corresponding to aminoacids 50 457; GST (N, cleaved yes); PreScission Protease recognition site (N); made in house; host or cells: Escherichia coli BL21pLysS (DE3)
Sequence (P35790 50-439 isoform P35790-2): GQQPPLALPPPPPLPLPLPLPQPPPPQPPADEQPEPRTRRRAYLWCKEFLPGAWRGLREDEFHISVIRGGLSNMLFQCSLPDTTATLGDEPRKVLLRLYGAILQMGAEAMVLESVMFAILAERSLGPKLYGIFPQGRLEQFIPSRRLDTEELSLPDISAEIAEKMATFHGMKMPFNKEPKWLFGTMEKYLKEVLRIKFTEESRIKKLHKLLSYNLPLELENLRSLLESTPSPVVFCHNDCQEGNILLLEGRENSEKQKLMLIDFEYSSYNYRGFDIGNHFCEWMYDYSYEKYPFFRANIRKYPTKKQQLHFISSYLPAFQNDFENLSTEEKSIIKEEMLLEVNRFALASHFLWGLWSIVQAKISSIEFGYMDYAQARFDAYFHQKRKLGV
Experiment: Biochemical kinase inhibition assay (Kinase-Glo luminescent) on Δ49N-hChoKα
Details: recombinant Δ49N-hChoKα 2.2 nM, ATP 5 μM, choline 5 μM, 60 min rt; read-out: ChoKα IC50
REPORTED_METRIC: IC50 (µM)

{"SMILES_CODE": "CN1CCC(NC(=O)Cc2cnc(NC(=O)c3n[nH]c4c3C(C)(C)Cc3cnc(N)nc3-4)s2)CC1", "TARGET": "Δ49N-hChoKα (Homo sapiens, UniProt P35790)", "REPORTED_METRIC": "IC50", "RECORDED_MEASUREMENT": 0.079}
{"SMILES_CODE": "CC1(C)Cc2cnc(N)nc2-c2[nH]nc(C(=O)Nc3nc(CC(=O)N4CC[C@@H](O)C4)cs3)c21", "TARGET": "Δ49N-hChoKα (Homo sapiens, UniProt P35790)", "REPORTED_METRIC": "IC50", "RECORDED_MEASUREMENT": 0.149}
{"SMILES_CODE": "CC1(C)Cc2cnc(N)nc2-c2[nH]nc(C(=O)Nc3ncc(C(=O)N4CCC(N5CCCCC5)CC4)s3)c21", "TARGET": "Δ49N-hChoKα (Homo sapiens, UniProt P35790)", "REPORTED_METRIC": "IC50", "RECORDED_MEASUREMENT": 0.111}

FYI, the data here is from patent US11117901B2.
